meta.source: PubChem BioAssay AID2060622

- System: 242566-281-R-J2-PDC complex spheroid viability
- Assay method text: Anticancer human tumor 242566-281-R-J2-PDC patient-derived pancreatic carcinoma cell line growth inhibition [CLK]
- Experimental conditions: second compound 10 µM; first compound 0.00949 µM; stronger effect = lower value
Quick reference for viability, T/C among some molecules
Quick note: give the figure in %, leave out the unit.

// known answers, use as guide
>  <Molecule>
NC(=O)C(=Cn1cnc(-c2cc(C(F)(F)F)cc(C(F)(F)F)c2)n1)c1cncnc1 + CN1CCN(c2cc(C(=O)Nc3cc4cc(-c5cnn(C)c5)ccc4cn3)ccn2)CC1

>  <Target entity>
242566-281-R-J2-PDC complex spheroid viability

>  <Scale unit>
%

>  <viability, T/C>
1.11

$$$$
>  <Molecule>
CC(C)CC(NC(=O)C(Cc1ccccc1)NC(=O)c1cnccn1)B(O)O (stereo not given) + CNC(=O)c1ccc(Nc2nc(OC3CCCC3)c3c(-c4ccc5nc(C)oc5c4)c[nH]c3n2)c(OC)c1

>  <Target entity>
242566-281-R-J2-PDC complex spheroid viability

>  <Scale unit>
%

>  <viability, T/C>
0.57

$$$$
>  <Molecule>
NC(=O)C(=Cn1cnc(-c2cc(C(F)(F)F)cc(C(F)(F)F)c2)n1)c1cncnc1 + CNC(=O)c1ccc(Nc2nc(OC3CCCC3)c3c(-c4ccc5nc(C)oc5c4)c[nH]c3n2)c(OC)c1

>  <Target entity>
242566-281-R-J2-PDC complex spheroid viability

>  <Scale unit>
%

>  <viability, T/C>
72.5

$$$$

Can you look up viability, T/C on 242566-281-R-J2-PDC complex spheroid viability for CC(C)CC(NC(=O)C(Cc1ccccc1)NC(=O)c1cnccn1)B(O)O (stereo not given) + CN1CCN(c2cc(C(=O)Nc3cc4cc(-c5cnn(C)c5)ccc4cn3)ccn2)CC1 ?
0.3

Can you look up viability, T/C on 242566-281-R-J2-PDC complex spheroid viability for C=CC(=O)Nc1cc(Nc2nccc(-c3cn(C)c4ccccc34)n2)c(OC)cc1N(C)CCN(C)C + CN1CCN(c2cc(C(=O)Nc3cc4cc(-c5cnn(C)c5)ccc4cn3)ccn2)CC1 ?
1.72

---

- Tested on: 242566-281-R-J2-PDC complex spheroid viability
- Assay method text: Anticancer human tumor 242566-281-R-J2-PDC cell line growth inhibition [CLK];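 further: spheroids exposed to compounds for 7 days before readout; 100% = DMSO vehicle control wells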
- Experimental conditions: second compound 3.16 µM; first compound 0.1 µM; stronger effect = lower value
Quick reference for viability, T/C among some compounds
Quick note: give the figure in %, leave out the unit.

// known answers, use as guide
>  <Compound>
COC1C=CCC(C)C(C)S(=O)(=O)NC(=O)c2ccc3c(c2)N(CC2CCC21)CC1(CCCc2cc(Cl)ccc21)CO3 (stereo not drawn) + CNC(=O)c1ccc(Nc2nc(OC3CCCC3)c3c(-c4ccc5nc(C)oc5c4)c[nH]c3n2)c(OC)c1

>  <viability, T/C (%)>
40.1

$$$$
>  <Compound>
CCN1CCN(Cc2ccc(Nc3ncc(F)c(-c4cc(F)c5nc(C)n(C(C)C)c5c4)n3)nc2)CC1 + CN1CCN(c2cc(C(=O)Nc3cc4cc(-c5cnn(C)c5)ccc4cn3)ccn2)CC1

>  <viability, T/C (%)>
7.18

$$$$

Consider the record given below.
Can you look up viability, T/C on 242566-281-R-J2-PDC complex spheroid viability for O=c1[nH]cc(F)c(=O)[nH]1 + CN1CCN(c2cc(C(=O)Nc3cc4cc(-c5cnn(C)c5)ccc4cn3)ccn2)CC1 ?
6.79
